STUDY TARGET: dihydrolipoamide acyltransferase (DlaT) (Mycobacterium tuberculosis)
Sequence (P9WIS7 1-553): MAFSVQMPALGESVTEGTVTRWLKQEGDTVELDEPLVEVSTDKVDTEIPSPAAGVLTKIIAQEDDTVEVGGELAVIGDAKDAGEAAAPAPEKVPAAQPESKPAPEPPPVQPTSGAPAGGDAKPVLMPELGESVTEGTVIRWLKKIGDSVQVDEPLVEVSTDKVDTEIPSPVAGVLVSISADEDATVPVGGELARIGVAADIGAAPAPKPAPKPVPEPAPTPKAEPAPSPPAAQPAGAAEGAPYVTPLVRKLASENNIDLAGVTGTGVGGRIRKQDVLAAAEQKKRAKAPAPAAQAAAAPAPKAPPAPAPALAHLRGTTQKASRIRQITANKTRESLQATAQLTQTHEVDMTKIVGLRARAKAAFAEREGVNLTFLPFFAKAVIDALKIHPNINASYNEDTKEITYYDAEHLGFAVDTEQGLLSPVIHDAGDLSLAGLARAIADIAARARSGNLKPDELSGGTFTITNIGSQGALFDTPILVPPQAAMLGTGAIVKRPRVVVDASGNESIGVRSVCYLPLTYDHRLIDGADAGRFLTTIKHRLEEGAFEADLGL
TEST DESCRIPTION: DlaT inhibition (Dlat IC50); DTNB peroxidase assay with Lpd, DlaT and AhpD
Format: biochemical
SETTINGS: Table 1, Compounds A1 to A294; read-out: Dlat IC50 category
pIC50: −log10 of the molar value.

[
  {
    "COMPOUND": "CN(C)c1ccc(N2C(=O)C(=Cc3ccc(-c4cccc(Cl)c4)o3)SC2=S)cc1C(=O)O",
    "STUDY TARGET": "dihydrolipoamide acyltransferase (DlaT) (Mycobacterium tuberculosis)",
    "pIC50": "4.40 to 4.96"
  },
  {
    "COMPOUND": "O=C(O)c1cccc(N2C(=O)C(=Cc3ccc(-c4ccccc4F)s3)SC2=S)c1 [Compound A195]",
    "STUDY TARGET": "dihydrolipoamide acyltransferase (DlaT) (Mycobacterium tuberculosis)",
    "pIC50": "4.40 to 4.96"
  },
  {
    "COMPOUND": "CN(C)c1cccc(-c2ccc(C=C3SC(=S)N(c4cccc(C(=O)O)c4)C3=O)o2)c1",
    "STUDY TARGET": "dihydrolipoamide acyltransferase (DlaT) (Mycobacterium tuberculosis)",
    "pIC50": "> 5.00"
  },
  {
    "COMPOUND": "O=C(O)c1cccc(N2C(=O)C(=Cc3ccc(-c4cccc(-c5ccccc5)c4)o3)SC2=S)c1",
    "STUDY TARGET": "dihydrolipoamide acyltransferase (DlaT) (Mycobacterium tuberculosis)",
    "pIC50": "> 5.00"
  },
  {
    "COMPOUND": "Cc1ccc(-c2ccc(C=C3SC(=S)N(c4ccc(F)c(C(=O)O)c4)C3=O)o2)cc1",
    "STUDY TARGET": "dihydrolipoamide acyltransferase (DlaT) (Mycobacterium tuberculosis)",
    "pIC50": "> 5.00"
  },
  {
    "COMPOUND": "O=C(O)c1ccc(F)c(N2C(=O)C(=Cc3nc(-c4ccccc4)cs3)SC2=S)c1",
    "STUDY TARGET": "dihydrolipoamide acyltransferase (DlaT) (Mycobacterium tuberculosis)",
    "pIC50": "4.40 to 4.96"
  },
  {
    "COMPOUND": "O=C(O)c1ccc(F)c(N2C(=O)C(=Cc3ccc(-c4cccc(CO)c4)o3)SC2=S)c1",
    "STUDY TARGET": "dihydrolipoamide acyltransferase (DlaT) (Mycobacterium tuberculosis)",
    "pIC50": "> 5.00"
  },
  {
    "COMPOUND": "NS(=O)(=O)c1ccc(N2C(=O)C(=Cc3ccc(-c4ccc(Oc5ccccc5)cc4)o3)SC2=S)cc1",
    "STUDY TARGET": "dihydrolipoamide acyltransferase (DlaT) (Mycobacterium tuberculosis)",
    "pIC50": "< 4.39"
  },
  {
    "COMPOUND": "COc1cc(F)ccc1-c1ccc(C=C2SC(=S)N(c3cccc(C(=O)O)c3)C2=O)o1",
    "STUDY TARGET": "dihydrolipoamide acyltransferase (DlaT) (Mycobacterium tuberculosis)",
    "pIC50": "> 5.00"
  },
  {
    "COMPOUND": "O=C(O)c1cccc(N2C(=O)C(=Cc3ccccc3-c3ccccc3OCc3ccccc3Cl)SC2=S)c1",
    "STUDY TARGET": "dihydrolipoamide acyltransferase (DlaT) (Mycobacterium tuberculosis)",
    "pIC50": "4.40 to 4.96"
  },
  {
    "COMPOUND": "O=C(O)c1cc(N2C(=O)C(=Cc3ccc(-c4ccccc4Cl)o3)SC2=S)ccc1F",
    "STUDY TARGET": "dihydrolipoamide acyltransferase (DlaT) (Mycobacterium tuberculosis)",
    "pIC50": "4.40 to 4.96"
  },
  {
    "COMPOUND": "CCCCOc1ccc(-c2ccc(C=C3SC(=S)N(c4cccc(C(=O)O)c4)C3=O)o2)cc1",
    "STUDY TARGET": "dihydrolipoamide acyltransferase (DlaT) (Mycobacterium tuberculosis)",
    "pIC50": "< 4.39"
  },
  {
    "COMPOUND": "Cc1ccccc1-c1ccc(C=C2SC(=S)N(c3cc(C(=O)O)ccc3C)C2=O)o1",
    "STUDY TARGET": "dihydrolipoamide acyltransferase (DlaT) (Mycobacterium tuberculosis)",
    "pIC50": "> 5.00"
  },
  {
    "COMPOUND": "O=C(O)c1cc(N2C(=O)C(=Cc3ccc(-c4ccccc4F)o3)SC2=S)cc(C(F)(F)F)c1",
    "STUDY TARGET": "dihydrolipoamide acyltransferase (DlaT) (Mycobacterium tuberculosis)",
    "pIC50": "> 5.00"
  },
  {
    "COMPOUND": "C#Cc1ccc(-c2ccc(C=C3SC(=S)N(c4cccc(C(=O)O)c4)C3=O)o2)cc1",
    "STUDY TARGET": "dihydrolipoamide acyltransferase (DlaT) (Mycobacterium tuberculosis)",
    "pIC50": "4.40 to 4.96"
  },
  {
    "COMPOUND": "CC(=O)Nc1ccc(-c2ccc(C=C3SC(=S)N(c4cc(C(=O)O)ccc4F)C3=O)o2)cc1",
    "STUDY TARGET": "dihydrolipoamide acyltransferase (DlaT) (Mycobacterium tuberculosis)",
    "pIC50": "> 5.00"
  },
  {
    "COMPOUND": "CC(C)c1cccc(-c2ccc(C=C3SC(=S)N(c4cccc(C(=O)O)c4)C3=O)o2)c1",
    "STUDY TARGET": "dihydrolipoamide acyltransferase (DlaT) (Mycobacterium tuberculosis)",
    "pIC50": "> 5.00"
  },
  {
    "COMPOUND": "O=C(O)c1cccc(N2C(=O)C(=Cc3ccc(-c4ccc(Cc5ccc(Cl)cc5)cc4)o3)SC2=S)c1",
    "STUDY TARGET": "dihydrolipoamide acyltransferase (DlaT) (Mycobacterium tuberculosis)",
    "pIC50": "> 5.00"
  },
  {
    "COMPOUND": "O=C(O)c1cccc(N2C(=O)C(=Cc3ccc(-c4ccccc4[N+](=O)[O-])o3)SC2=S)c1",
    "STUDY TARGET": "dihydrolipoamide acyltransferase (DlaT) (Mycobacterium tuberculosis)",
    "pIC50": "< 4.39"
  },
  {
    "COMPOUND": "NC(=O)c1cccc(N2C(=O)C(=Cc3ccc(-c4ccc(C(=O)O)cc4)o3)SC2=S)c1",
    "STUDY TARGET": "dihydrolipoamide acyltransferase (DlaT) (Mycobacterium tuberculosis)",
    "pIC50": "4.40 to 4.96"
  },
  {
    "COMPOUND": "Cc1cc(N(C)C)ccc1-c1ccc(C=C2SC(=S)N(c3cc(C(=O)O)ccc3F)C2=O)o1",
    "STUDY TARGET": "dihydrolipoamide acyltransferase (DlaT) (Mycobacterium tuberculosis)",
    "pIC50": "4.40 to 4.96"
  },
  {
    "COMPOUND": "CCc1ccc(-c2ccc(C=C3SC(=S)N(c4cc(C(=O)O)cc(C(=O)O)c4)C3=O)o2)cc1",
    "STUDY TARGET": "dihydrolipoamide acyltransferase (DlaT) (Mycobacterium tuberculosis)",
    "pIC50": "> 5.00"
  },
  {
    "COMPOUND": "O=C(O)c1ccc(F)c(N2C(=O)C(=Cc3ccc(-c4cccc(-c5ccccc5)c4)o3)SC2=S)c1",
    "STUDY TARGET": "dihydrolipoamide acyltransferase (DlaT) (Mycobacterium tuberculosis)",
    "pIC50": "> 5.00"
  },
  {
    "COMPOUND": "O=C(O)c1cccc(N2C(=O)C(=Cc3ccc(-c4ccccc4-c4ccccc4)o3)SC2=S)c1",
    "STUDY TARGET": "dihydrolipoamide acyltransferase (DlaT) (Mycobacterium tuberculosis)",
    "pIC50": "> 5.00"
  },
  {
    "COMPOUND": "O=C(O)c1ccc(F)c(N2C(=O)C(=Cc3ccc(-c4ccc(F)cc4F)o3)SC2=S)c1",
    "STUDY TARGET": "dihydrolipoamide acyltransferase (DlaT) (Mycobacterium tuberculosis)",
    "pIC50": "> 5.00"
  },
  {
    "COMPOUND": "COc1ccc(-c2ccc(C=C3SC(=S)N(c4cc(C(=O)O)ccc4F)C3=O)o2)c(OC)c1",
    "STUDY TARGET": "dihydrolipoamide acyltransferase (DlaT) (Mycobacterium tuberculosis)",
    "pIC50": "> 5.00"
  },
  {
    "COMPOUND": "Cc1cc(F)ccc1-c1ccc(C=C2SC(=S)N(c3cc(C(=O)O)ccc3F)C2=O)o1",
    "STUDY TARGET": "dihydrolipoamide acyltransferase (DlaT) (Mycobacterium tuberculosis)",
    "pIC50": "> 5.00"
  },
  {
    "COMPOUND": "O=C(O)c1cc(N2C(=O)C(=Cc3ccc(-c4cc(Cl)ccc4Cl)o3)SC2=S)ccc1O",
    "STUDY TARGET": "dihydrolipoamide acyltransferase (DlaT) (Mycobacterium tuberculosis)",
    "pIC50": "4.40 to 4.96"
  },
  {
    "COMPOUND": "CC(C)(C)c1ccc(-c2ccc(C=C3SC(=S)N(c4cc(C(=O)O)ccc4F)C3=O)o2)cc1",
    "STUDY TARGET": "dihydrolipoamide acyltransferase (DlaT) (Mycobacterium tuberculosis)",
    "pIC50": "> 5.00"
  },
  {
    "COMPOUND": "NS(=O)(=O)c1ccc(N2C(=O)C(=Cc3ccc(-c4ccc(Cc5ccccc5)cc4)o3)SC2=S)cc1",
    "STUDY TARGET": "dihydrolipoamide acyltransferase (DlaT) (Mycobacterium tuberculosis)",
    "pIC50": "4.40 to 4.96"
  }
]
